Quick reference: IC50 of the listed items.
- system-under-test: PI3Kα (Homo sapiens (Human), UniProt P42336)
- Sequence (P42336 whole entry): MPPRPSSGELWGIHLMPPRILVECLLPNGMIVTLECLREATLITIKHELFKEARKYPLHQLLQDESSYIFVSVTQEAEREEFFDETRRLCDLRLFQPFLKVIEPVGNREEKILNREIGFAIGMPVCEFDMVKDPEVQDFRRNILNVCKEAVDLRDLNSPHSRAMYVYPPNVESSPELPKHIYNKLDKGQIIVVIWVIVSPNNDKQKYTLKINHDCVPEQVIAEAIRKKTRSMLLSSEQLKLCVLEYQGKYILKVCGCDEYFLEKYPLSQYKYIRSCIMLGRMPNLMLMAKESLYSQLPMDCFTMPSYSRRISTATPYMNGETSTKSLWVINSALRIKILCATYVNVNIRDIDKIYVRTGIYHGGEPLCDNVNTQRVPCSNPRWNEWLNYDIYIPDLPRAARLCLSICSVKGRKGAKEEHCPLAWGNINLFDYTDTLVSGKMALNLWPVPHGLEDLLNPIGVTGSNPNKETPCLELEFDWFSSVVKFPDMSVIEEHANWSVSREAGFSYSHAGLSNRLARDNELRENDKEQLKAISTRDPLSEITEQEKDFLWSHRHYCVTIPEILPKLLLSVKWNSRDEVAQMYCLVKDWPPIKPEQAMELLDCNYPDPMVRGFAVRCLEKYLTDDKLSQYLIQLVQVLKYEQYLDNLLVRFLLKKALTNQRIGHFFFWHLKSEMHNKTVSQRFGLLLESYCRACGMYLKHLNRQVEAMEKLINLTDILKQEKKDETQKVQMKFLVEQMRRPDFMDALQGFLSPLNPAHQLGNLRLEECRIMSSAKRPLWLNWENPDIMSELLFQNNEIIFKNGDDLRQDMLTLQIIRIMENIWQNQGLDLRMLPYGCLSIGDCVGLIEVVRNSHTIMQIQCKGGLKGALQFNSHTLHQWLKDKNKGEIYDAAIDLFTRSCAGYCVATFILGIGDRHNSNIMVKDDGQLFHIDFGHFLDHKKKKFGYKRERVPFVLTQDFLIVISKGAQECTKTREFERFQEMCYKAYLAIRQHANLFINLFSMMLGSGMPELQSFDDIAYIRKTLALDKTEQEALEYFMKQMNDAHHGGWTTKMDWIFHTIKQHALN
- Sequence (P27986 whole entry partner): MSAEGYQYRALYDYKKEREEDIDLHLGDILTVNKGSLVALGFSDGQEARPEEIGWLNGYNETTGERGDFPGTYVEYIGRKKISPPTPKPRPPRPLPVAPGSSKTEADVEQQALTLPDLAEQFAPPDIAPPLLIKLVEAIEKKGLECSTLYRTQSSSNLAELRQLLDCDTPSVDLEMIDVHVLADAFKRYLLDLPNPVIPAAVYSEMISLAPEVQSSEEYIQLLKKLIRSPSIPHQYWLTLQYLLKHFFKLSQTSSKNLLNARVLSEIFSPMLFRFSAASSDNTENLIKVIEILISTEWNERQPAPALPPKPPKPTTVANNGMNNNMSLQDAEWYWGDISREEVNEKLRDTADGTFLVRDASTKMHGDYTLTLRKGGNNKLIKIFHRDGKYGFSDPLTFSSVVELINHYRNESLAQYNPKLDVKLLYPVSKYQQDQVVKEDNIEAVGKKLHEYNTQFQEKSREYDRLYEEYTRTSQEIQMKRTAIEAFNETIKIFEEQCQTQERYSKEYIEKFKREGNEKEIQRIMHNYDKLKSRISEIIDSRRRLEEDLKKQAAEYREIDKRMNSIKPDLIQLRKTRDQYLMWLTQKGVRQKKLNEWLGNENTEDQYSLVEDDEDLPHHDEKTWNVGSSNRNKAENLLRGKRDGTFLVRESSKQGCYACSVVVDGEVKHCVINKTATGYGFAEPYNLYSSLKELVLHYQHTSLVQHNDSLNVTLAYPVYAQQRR
- experiment: Inhibition of PI3Kα efficacy assay (ADP-Glo kinase assay)
- Type: biochemical
- setup-conditions: Table 3; read-out: PI3Kα inhibitory activity (IC50)

Input line: Find the measured IC50 of COc1ncc(-c2ccc3ncnc(N4CCN(C(=O)/C=C/C(C)=O)CC4)c3n2)cc1NS(=O)(=O)c1c(F)cccc1F [Example 131] and report it.
Output line: 1.6 nM

Input line: In one line, give reported IC50 of the entry COc1ncc(-c2ccc3ncnc(N4CCN(C(=O)/C=C/C(C)=O)CC4)c3n2)cc1NS(=O)(=O)c1ccccc1F [Example 133] .
Output line: 5.4 nM

Input line: Give recorded IC50. COc1ncc(-c2ccc3ncnc(N4CCN(C(=O)/C=C/C(C)=O)CC4)c3n2)cc1NS(=O)(=O)c1ccc(F)cc1F [Example 132]
Output line: 3.6 nM

====

- Tested on: MIA PaCa-2 cells (KRAS G12C mutant)
- experiment: MIA PaCa-2 cell anti-proliferation (CellTiter-Glo)
- Assay type: cell-based
- setup-conditions: Homo sapiens, 72 h; MIA Paca-2 cells, 3 days, Table 7; read-out: MIA PaCa-2 (IC50)
pIC50: −log10 of the molar value.
Each entry gets false if its pIC50 stays under 7, and true if its pIC50 is 7 or above.

Example entries begin here.
{"compound": "COc1ncc(-c2ccc3ncnc(N4CCN(C(=O)/C=C/C(C)=O)C[C@@H]4C)c3c2)cc1NS(=O)(=O)c1ccc(F)cc1Cl [Example 174]", "classification": "true"}
{"compound": "COc1ncc(-c2ccc3ncnc(C4CCN(C(=O)/C=C/C(C)=O)CC4)c3c2)cc1NS(=O)(=O)c1c(F)cccc1Cl [Example 206]", "classification": "true"}
{"compound": "CC(=O)/C=C/C(=O)N1CCN(c2ncnc3ccc(-c4cnc(Cl)c(NS(=O)(=O)c5c(F)cccc5F)c4)cc23)[C@@H](C)C1 [Example 88]", "classification": "false"}
{"compound": "COc1ccc(Cl)c(S(=O)(=O)Nc2cc(-c3ccc4ncnc(N5CCN(C(=O)/C=C/C(C)=O)CC5)c4c3)cnc2OC)c1 [Example 184]", "classification": "true"}
{"compound": "COc1ncc(-c2ccc3ncnc(N4CCN(C(=O)/C=C/C(C)=O)CC4)c3c2)cc1NS(=O)(=O)c1ncc(Cl)s1 [Example 165]", "classification": "false"}

Input line: Form field: pIC50 at least 7? Entry: COC(=O)c1ncc(-c2ccc3ncnc(N4CCN(C(=O)/C=C/C(C)=O)CC4)c3c2)cc1NS(=O)(=O)c1ccc(F)cc1F [Example 181]
Output line: true

Input line: Determine whether measured pIC50 meets or exceeds 7 for COc1ncc(-c2ccc3ncnc(N4CCN(C(=O)/C=C/C(C)=O)CC4)c3c2)cc1NS(=O)(=O)c1ccccc1F [Example 91]
Output line: true

Input line: Would you say COc1ncc(-c2ccc3ncnc(N4CCN(C(=O)/C=C/C(C)=O)CC4)c3n2)cc1NS(=O)(=O)c1c(F)cccc1Cl [Example 225] shows pIC50 at minimum 7?
Output line: true

====

- system-under-test: KRAS^G12C-SOS1 (Homo sapiens (Human), UniProt P01116, G12C)
- Sequence (P01116-2 other isoform, or with tags, fused parts or gaps G12C): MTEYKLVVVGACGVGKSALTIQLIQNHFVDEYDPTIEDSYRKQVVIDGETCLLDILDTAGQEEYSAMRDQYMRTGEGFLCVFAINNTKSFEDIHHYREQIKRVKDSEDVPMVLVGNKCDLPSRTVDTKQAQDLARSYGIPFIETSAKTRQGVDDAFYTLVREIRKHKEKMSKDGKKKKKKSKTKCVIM
- experiment: HTRF KRAS G12C/SOS1 binding assay
- setup-conditions: Table 5
metric-name: pIC50
Scale: pIC50 equals -log10([C]), with [C] in mol/L.

Reference set, count: 4
{"compound": "COc1ncc(-c2ccc3ncnc(N4C[C@@H](C)N(C(=O)/C=C/C(C)=O)C[C@@H]4C)c3c2)cc1NS(=O)(=O)c1c(F)cccc1F", "pIC50": 6.03}
{"compound": "COc1ncc(-c2ccc3ncnc(C4=CCN(C(=O)/C=C/C(C)=O)CC4)c3n2)cc1NS(=O)(=O)c1c(F)cccc1Cl", "pIC50": 6.34}
{"compound": "COc1ncc(-c2ccc3ncnc(N4CCN(C(=O)/C=C/C(C)=O)C[C@@H]4C)c3c2)cc1NS(=O)(=O)c1c(F)cccc1F", "pIC50": 6.78}
{"compound": "COc1ncc(-c2ccc3ncnc(N4CCN(C(=O)/C=C/C(C)=O)CC4)c3c2)cc1NS(=O)(=O)c1c(F)cncc1F", "pIC50": 6.85}

Input line: Give the value of pIC50 reported for the following: `COc1ncc(-c2ccc3ncnc(N4CCN(C(=O)/C=C/C(C)=O)C[C@@H]4C)c3c2)cc1NS(=O)(=O)c1ccc(F)cc1`
Output line: 6.68

Input line: Check the records and state pIC50 for `COc1ncc(-c2ccc3ncnc(C4=CCN(C(=O)/C=C/C(C)=O)CC4)c3c2)cc1NS(=O)(=O)c1c(F)cccc1Cl`
Output line: 6.85

Input line: Using known records, supply pIC50 for `COc1ncc(-c2ccc3ncnc(C4CCN(C(=O)/C=C/C(C)=O)CC4)c3n2)cc1NS(=O)(=O)c1ccccc1F`
Output line: 6.57

Input line: Note down pIC50 recorded for `[2H]C([2H])([2H])Oc1ncc(-c2ccc3ncnc(N4CCN(C(=O)/C=C/C(C)=O)CC4)c3c2)cc1NS(=O)(=O)c1ccc(F)cc1F`
Output line: 6.84

Input line: Consider the compound `CC(=O)/C=C/C(=O)N1CCN(c2ncnc3ccc(-c4cnc(Cl)c(NS(=O)(=O)c5c(F)cc(F)cc5F)c4)cc23)CC1` . State its measured pIC50.
Output line: 6.39

Input line: Answer with the recorded pIC50 of `COc1ncc(-c2ccc3ncnc(C4=CCN(C(=O)/C=C/C(C)=O)CC4)c3c2)cc1NS(=O)(=O)c1c(F)cccc1F` only.
Output line: 6.85

Input line: Please give the documented pIC50 of `COc1ncc(-c2ccc3ncnc(N4CCN(C(=O)/C=C/C(C)=O)CC4)c3c2)cc1NS(=O)(=O)c1ccc(F)cc1`
Output line: 6.43

Input line: Report pIC50, nothing else, for this compound: `COc1ncc(-c2ccc3ncnc(N4CC5CCC(C4)N5C(=O)/C=C/C(C)=O)c3c2)cc1NS(=O)(=O)c1c(F)cccc1F`
Output line: 6.70

Input line: Annotate the compound `CCCC(=O)/C=C/C(=O)N1CCN(c2ncnc3ccc(-c4cnc(OC)c(NS(=O)(=O)c5ccc(F)cc5F)c4)cc23)CC1` with its measured pIC50.
Output line: 6.50

Input line: Determine its reported pIC50: `COc1ncc(-c2ccc3ncnc(N4CCN(C(=O)/C=C/C(C)=O)CC4)c3n2)cc1NS(=O)(=O)c1cccc(F)c1F`
Output line: 6.53

Input line: Read the entry `COc1ncc(-c2ccc3ncnc(N4CCN(C(=O)/C=C/C(C)=O)CC4)c3c2)cc1NS(=O)(=O)c1ccc(C(F)(F)F)cc1F` and write its reported pIC50.
Output line: 6.14

Input line: Supply reported pIC50 belonging to this compound: `CC(=O)/C=C/C(=O)N1CCN(c2ncnc3ccc(-c4cnc(N(C)C)c(NS(=O)(=O)c5ccc(F)cc5F)c4)cc23)CC1`
Output line: 6.80

Input line: Provide one value: measured pIC50 of `COc1ncc(-c2ccc3ncnc(N4CCN(C(=O)/C=C/C(C)=O)CC4)c3c2)cc1NS(=O)(=O)c1ccc(Cl)cc1F`
Output line: 6.61

Input line: Please indicate pIC50 recorded for COc1ncc(-c2ccc3ncnc(C4CCN(C(=O)/C=C/C(C)=O)C4)c3c2)cc1NS(=O)(=O)c1ccc(F)cc1F (centres unmarked)
Output line: 6.56

Input line: Quickly give me recorded pIC50 for `COc1ncc(-c2ccc3ncnc(N4CCN(C(=O)/C=C/C(C)=O)CC4)c3n2)cc1NS(=O)(=O)c1ccncc1F`
Output line: 6.56

Input line: Assign pIC50 to the following record: `COc1ncc(-c2ccc3ncnc(C4CCN(C(=O)/C=C/C(C)=O)CC4)c3c2)cc1NS(=O)(=O)c1c(F)cccc1F`
Output line: 6.43

Input line: For `COc1ncc(-c2ccc3ncnc(N4CCN(C(=O)/C=C/C(C)=O)CC4)c3c2)cc1NS(=O)(=O)c1c(F)cccc1F` , write its pIC50.
Output line: 6.83

Input line: Give the measured pIC50 for `COc1ncc(-c2ccc3ncnc(C4=CCN(C(=O)/C=C/C(C)=O)CC4)c3c2)cc1NS(=O)(=O)c1ccccc1F`
Output line: 6.88

====

Measured pIC50 of individual entries
- Test system: MIA PaCa-2 cells (KRAS G12C mutant)
- experiment: MIA PaCa-2 cell anti-proliferation (CellTiter-Glo)
- Type: cell-based
- setup-conditions: Homo sapiens, 72 h; MIA Paca-2 cells, 3 days, Table 7; read-out: MIA PaCa-2 (IC50)
Scale for pIC50: -log10 of concentration given in mol/L; no unit attached.

Recorded pIC50, per entry:
{"molecule": "COc1ncc(-c2ccc3ncnc(N4CCN(C(=O)/C=C/C(C)=O)CC4)c3c2)cc1NS(=O)(=O)c1ccccc1C [Example 93]", "reported": 7.40}
{"molecule": "COc1ncc(-c2ccc3ncnc(N4CCN(C(=O)/C=C/C(C)=O)CC4)c3c2)cc1S(=O)(=O)Nc1ccc(F)cc1F [Example 166]", "reported": 6.43}

Input line: Input COc1ncc(-c2ccc3ncnc(N4[C@H](C)CN(C(=O)/C=C/C(C)=O)C[C@@H]4C)c3c2)cc1NS(=O)(=O)c1ccccc1F [Example 193] , output reported pIC50.
Output line: 6.94
